These data points were gathered from the supplement of paper PMC7125110.

B1: glmS ribozyme (parent)
chain: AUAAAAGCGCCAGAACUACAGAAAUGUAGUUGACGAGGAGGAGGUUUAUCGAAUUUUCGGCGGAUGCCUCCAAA

Variants of: B1
EXPERIMENTAL_DETAILS: self-cleavage kobs at 2500 uM GlcN6P; higher = faster cleavage; RNA array
PARTICULARS: with glucosamine-6-phosphate
Fewer inactive variants are shown than the library holds.
Below, each entry is listed with its recorded self-cleavage kobs at 2500 uM GlcN6P.
READOUT_TYPE: self-cleavage kobs at 2500 uM GlcN6P

>>> meas_value("A39U C58G")
"2.25e-05 s⁻¹"
>>> meas_value("C8G U57C")
"< 1e-05 s⁻¹"
>>> meas_value("A14U C71G")
"0.000237 s⁻¹"
>>> meas_value("G29A C50G U55A")
"0.000211 s⁻¹"
>>> meas_value("G9C A53C C70U")
"< 1e-05 s⁻¹"
>>> meas_value("G60C G66U")
"< 1e-05 s⁻¹"
>>> meas_value("G37A A52U U57A")
"8.64e-05 s⁻¹"
>>> meas_value("G9C G32U A39U G41U")
"< 1e-05 s⁻¹"
>>> meas_value("U30G A39U G60U")
"< 1e-05 s⁻¹"
>>> meas_value("U46C C67G")
"0.000431 s⁻¹"
>>> meas_value("A6U G35C G62A")
"< 1e-05 s⁻¹"
>>> meas_value("G40U U55A")
"0.00204 s⁻¹"
>>> meas_value("G43C G60C")
"< 1e-05 s⁻¹"
>>> meas_value("A33C G37U A42G G44U A64G G66U")
"< 1e-05 s⁻¹"
>>> meas_value("U30C A64G")
"0.000267 s⁻¹"
>>> meas_value("A6G A42C")
"< 1e-05 s⁻¹"
>>> meas_value("C34G G59A")
"< 1e-05 s⁻¹"
>>> meas_value("G32U C67A")
"0.00014 s⁻¹"
>>> meas_value("A12G U69C")
"0.000243 s⁻¹"
>>> meas_value("A15C G32C U55C U57C U65C")
"< 1e-05 s⁻¹"
>>> meas_value("A48U U56C")
"4.13e-05 s⁻¹"
>>> meas_value("C10U A12U A33U A53G C58U U69G")
"0.000132 s⁻¹"
